Biological target: HsClpP (mitochondrial caseinolytic protease P) (Homo sapiens, UniProt Q16740)
Sequence (Q16740 57-277): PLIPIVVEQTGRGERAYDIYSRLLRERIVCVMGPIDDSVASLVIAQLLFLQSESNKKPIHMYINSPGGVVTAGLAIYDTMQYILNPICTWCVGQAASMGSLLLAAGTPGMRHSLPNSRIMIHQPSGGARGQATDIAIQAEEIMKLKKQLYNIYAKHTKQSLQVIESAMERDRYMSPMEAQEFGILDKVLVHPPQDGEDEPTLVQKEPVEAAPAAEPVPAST
Test: X-ray crystal structure at […] Å; DSF (ΔTm […] °C); EC50 from FITC-casein FI protease assay; CETSA
Assay type: biochemical
Design: gene CLPP; HsClpPΔ56 (N-terminus 56 amino acids truncated)

| item-smiles | measured-target | readout-unit | EC50 |
| --- | --- | --- | --- |
| O=C(NCc1ccc(Br)cc1)N1CCN(Cc2cc(F)cc(F)c2)CC1 | HsClpP (mitochondrial caseinolytic protease P) (Homo sapiens, UniProt Q16740) | nM | 220 |

---

Molecular target: UniProtKB Q16740
Test: biochemical
Set-up: gene CLPP

| item-smiles | EC50 [µM] |
| --- | --- |
| O=C(COc1ccc(Cl)cc1)N1CCN(Cc2cc(F)cc(F)c2)CC1 | 0.45 |

Reference source for all entries: paper PMC10624687
